Recorded values, source PubChem BioAssay AID1159580.

# ASSAY_EXPLANATION: chemical genetic growth profiling, strain panel (AID 1159580);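 note: tested at 20 µM; growth read once vehicle control cultures reached saturation at 30 °C; 1 = growth at the plate median or of vehicle wells; lower values mean less growth of the strain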
# CONDITION_DETAILS: S. cerevisiae deletion strains, growth OD, locus YMR223W, strain ubp8, hits give low values
In all, about 5,500 compounds went through this assay and about 2,000 (36%) were called active. Another 18% or so got no clear call; they are omitted. Some of the results follow.
MEASURED_PARAMETER: normalized growth

1. COc1ccc2c(c1)CCC1C2CCC2(C)C1C[C@@H](O)C2O (some centres not stated) ... 0.965
2. C[C@@H]([C@H](O)c1ccccc1)N(C)C ... 1.04
3. C[C@]12CCC3c4ccc(O)cc4CCC3C1C[C@@H](O)[C@@H]2O (some centres not stated) ... 1.02
4. CC1CC[C@]2(NC1)O[C@H]1CC3C4CC[C@H]5C[C@@H](O)CC[C@]5(C)C4CC[C@]3(C)[C@H]1[C@@H]2C (some centres not stated) ... 0.0843
5. CNC(=O)Oc1cccc2c1OC(C)(C)O2 ... 0.985
6. CC1CCC2(OC1)OC1CC3C4CC[C@H]5C[C@@H](O)CC[C@]5(C)C4CC(=O)[C@]3(C)C1C2C (some centres not stated) ... 0.999
7. CC1CC[C@@]2(OC1)O[C@H]1CC3C4CC[C@@H]5CC(=O)CC[C@]5(C)C4CC[C@]3(C)[C@H]1[C@@H]2C (some centres not stated) ... 0.996
8. CNC(C)C(O)c1ccccc1 (configuration not stated) ... 1.02
9. COc1ccc(-c2cc(=O)c3c(O)cc(O[C@@H]4O[C@H](CO[C@H]5O[C@H](C)[C@@H](O)[C@H](O)[C@@H]5O)[C@@H](O)[C@H](O)[C@H]4O)cc3o2)cc1O ... 0.989
10. C[C@@H]1CC[C@@]2(OC1)OC1CC3C4CC=C5C[C@@H](O)CC[C@]5(C)C4CC[C@]3(C)C1[C@@H]2C (some centres not stated) ... 0.963
11. CC1O[C@@H](Oc2c(-c3ccc(O)c(O)c3)oc3cc(O)cc(O)c3c2=O)[C@H](O)[C@H](O)[C@H]1O (some centres not stated) ... 1.03
12. C[C@@H]1CC[C@@]2(OC1)O[C@H]1CC3C4CC[C@H]5C[C@@H](O)CC[C@]5(C)C4CC[C@]3(C)[C@H]1[C@@H]2C (some centres not stated) ... 0.979
13. CCC1OC(=O)[C@H](C)C(=O)[C@H](C)[C@@H](OC2O[C@H](C)C[C@H](N(C)C)[C@H]2O)[C@](C)(OC)C2(CCCn3cnc(-c4cccnc4)c3)C[C@@H](C)C(=O)[C@H](C)[C@H]3N(C2)C(=O)O[C@]13C (some centres not stated) ... 1
14. C[C@]12CCC3c4ccc(OS(=O)(=O)O)cc4CCC3C1CC[C@H]2O (some centres not stated) ... 0.985
15. COc1ccc(-c2oc3cc(O[C@H]4O[C@H](CO)[C@@H](O)[C@H](O)[C@H]4O)c(OC)c(O)c3c(=O)c2OC)cc1O ... 0.977
16. O=C(Cc1cccs1)NC1C(=O)N2C(C(=O)[O-])=C(C[n+]3ccccc3)CSC12 (configuration not stated) ... 0.982
17. COc1ccc2c(c1)CCC1C2CC[C@@]2(C)C1CC[C@@H]2O (some centres not stated) ... 0.728
